assay: Cellular viability qHTS for adrenocortical cancer (ACC) cell line NCI-H295R (AID 1963990); conditions: CellTiter-Glo ATP luminescence, 48 h; series mostly up to 46.1 µM;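 also: 0% = DMSO only wells and -100% = full killing with cytotoxic reference compound; nearly all actives have a fitted effect of over 60% in size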
Inconclusive results are not listed. The source made the active and inactive calls. Calls follow the shape of the dose curve; as a rule, active = well fitted cell-killing curve with a large enough effect; inconclusive = small, poorly fitted or top-dose-only effect; inactive = flat fitted curve, though single readings scatter. *1 amine or outer side, *2 acyl side, *3 side chain or, on linkers, in order; H or OH if unused. Where a SMILES comes first, the peptide text is derived from it. Bridges are numbered along the chain shown (N, C = ends). [ ]: non-standard residue; d: D form. The star is where a group is joined. ξ: configuration not given here. ΔAla(3-NHCONH2) = NC(=O)NC=C(N)C(=O)O; X2 = NC1=NCCC(C(N[*:1])C(=O)[*:2])N1; ξβ3hOrn = NCCCC(N)CC(=O)*; Dap = NC[CH](N)C(=O)O
For each record, write down the corresponding activity change, negative = viability loss.

*Q* // query activity change, negative = viability loss value for entry CN1CCN(CC(=O)N2c3ccccc3C(=O)Nc3cccnc32)CC1
*A* -2.51% [at 3.81 µM] (inactive)

*Q* // query activity change, negative = viability loss value for entry COCCNc1cc(NC(=O)N2CCCc3cc(CN4CCN(C)CC4=O)c(C=O)nc32)ncc1C#N
*A* -1.4% [at 9.17 µM] (inactive)

*Q* // query activity change, negative = viability loss value for entry CCN[C@@H]1C[C@H](N)[C@@H](OC2OC(CN)=CCC2N)[C@H](O)[C@H]1O[C@H]1OC[C@](C)(O)[C@H](NC)[C@H]1O (stereo partly drawn)
*A* -3.31% [at 0.587 µM] (inactive)

*Q* // query activity change, negative = viability loss value for entry COc1ccc2c3n(c(=NC(=O)c4cccnc4)nc2c1OC)CCN3
*A* -25.5% [at 3.81 µM] (inactive)

*Q* // query activity change, negative = viability loss value for entry CN(C)CCNC(=O)COc1c2cccc1Cc1cccc(c1OCC(=O)NCCN(C)C)Cc1cccc(c1OCC(=O)NCCN(C)C)Cc1cccc(c1OCC(=O)NCCN(C)C)C2
*A* 4.99% [at 9.17 µM] (inactive)

*Q* // query activity change, negative = viability loss value for entry CC1CN(c2cc3c(cc2F)c(=O)c(C(=O)O)cn3-c2ccc(F)cc2F)CCN1 (stereo not drawn)
*A* 1.32% [at 3.81 µM] (inactive)

*Q* // query activity change, negative = viability loss value for entry N[C@@H](CSSC[C@H](N)C(=O)O)C(=O)O
*A* -0.603% [at 0.587 µM] (inactive)

*Q* // query activity change, negative = viability loss value for entry O=C(/C=C/c1ccc(/C=C/C(=O)Nc2ccc(C3=NCCN3)cc2)cc1)Nc1ccc(C2=NCCN2)cc1
*A* -22% [at 3.81 µM] (inactive)

*Q* // query activity change, negative = viability loss value for entry Cn1cc(-c2nc(N[C@@H]3CCCC[C@@H]3N)c(F)c3c2C(=O)NC3)cn1
*A* 0.124% [at 3.81 µM] (inactive)

*Q* // query activity change, negative = viability loss value for entry NC(Cc1ccc(Cl)cc1)C(=O)O (stereo not drawn)
*A* -11% [at 0.587 µM] (inactive)

*Q* // query activity change, negative = viability loss value for entry CC1CCC(n2c3cnccc3c3cnc(Nc4ccc5c(n4)CCN(C(=O)CO)C5)nc32)CC1 (stereo not drawn)
*A* 3.35% [at 9.17 µM] (inactive)

*Q* // query activity change, negative = viability loss value for entry NC(N)=NCCC[C@H](N)C(=O)O
*A* -23.9% [at 3.81 µM] (inactive)

*Q* // query activity change, negative = viability loss value for entry Nc1ccn(C[C@@H](CO)OCP(=O)(O)O)c(=O)n1
*A* 1.71% [at 9.17 µM] (inactive)

*Q* // query activity change, negative = viability loss value for entry Cn1cc(C[C@@H](N)C(=O)O)c2ccccc21
*A* -13.9% [at 9.17 µM] (inactive)

*Q* // query activity change, negative = viability loss value for entry N=C(N)N1CCc2ccccc2C1
*A* -6.61% [at 3.81 µM] (inactive)

*Q* // query activity change, negative = viability loss value for entry Cc1cc(O)cc2c1[C@]1(C)CC[C@H]3C(C)(C)CCC[C@]3(C)[C@H]1C2
*A* -10.2% [at 3.81 µM] (inactive)

*Q* // query activity change, negative = viability loss value for entry NCCCC(N)CC(=O)NCC1NC(=O)C(CO)NC(=O)C(N)CNC(=O)C(C2CCN=C(N)N2)NC(=O)C(=CNC(N)=O)NC1=O (stereo not drawn) (H-[Dap]S[Dap](ξβ3hOrn)[ΔAla(3-NHCONH2)][X2]; lactam 1-C; configuration not given here)
*A* 3.92% [at 0.587 µM] (inactive)

*Q* // query activity change, negative = viability loss value for entry NCC[C@H](O)C(=O)N[C@@H]1C[C@H](N)[C@@H](O[C@H]2O[C@H](CN)[C@@H](O)[C@H](O)[C@@H]2O)[C@H](O)[C@@H]1O[C@H]1O[C@H](CO)[C@@H](O)[C@H](N)[C@@H]1O
*A* 7.11% [at 0.587 µM] (inactive)

----------
assay: Cellular viability qHTS for adrenocortical cancer (ACC) cell line SW-13 (AID 1963989); conditions: SW-13 ACC cells viability, CellTiter-Glo, 48 h; active compounds read low;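 also: cells grown in serum-free medium with ITS supplement; % is scaled to controls: 0 for no effect and ±100 for the full control effect; nearly all actives have a fitted effect of over 65% in size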
Inconclusive results are not listed.
Measured property: activity (max response) (%)
Could you give me the number in %? Just the number is fine.

*Q* // query activity (max response) value for entry Oc1ccccc1
*A* 8.68

*Q* // query activity (max response) value for entry CCN(CC)CCOC(=O)C(Cc1cccc2ccccc12)CC1CCCO1 (centres undefined)
*A* -10.7

*Q* // query activity (max response) value for entry Nc1ncnc2c1ncn2[C@@H]1O[C@H](CO)[C@@H](O)[C@H]1O
*A* -13.6

*Q* // query activity (max response) value for entry CCOC(=O)c1ccc(NC(=O)CN2CCCCC2)cc1
*A* -5.52

*Q* // query activity (max response) value for entry CC1(C)OCCn2c1nc1c(N3CCOCC3)nc(-c3cnc(N)nc3)nc12
*A* -17.2

*Q* // query activity (max response) value for entry CCCCC1(COC(=O)CCC(=O)O)C(=O)N(c2ccccc2)N(c2ccccc2)C1=O
*A* 6.69

*Q* // query activity (max response) value for entry NC(=O)N1c2ccccc2C=Cc2ccccc21
*A* 8.83

*Q* // query activity (max response) value for entry Cc1cc(-c2cnn3c(NCC4CC(C)(O)C4)cc(Oc4cccnc4)nc23)ccc1C(=O)NC1CC1 (centres undefined)
*A* -6.44

*Q* // query activity (max response) value for entry Cc1ccc(C(C)C)cc2c(C)ccc1-2
*A* 0.775

*Q* // query activity (max response) value for entry OCC(O)CN1CCN(c2ccccc2)CC1 (centres undefined)
*A* -5.47

*Q* // query activity (max response) value for entry Cc1ccccc1OCC(O)CO (centres undefined)
*A* -4.04

*Q* // query activity (max response) value for entry C1=CC2C3C=CC(C3)C2C1 (centres undefined)
*A* 5.69

*Q* // query activity (max response) value for entry CCOc1ccc(Cc2cc([C@@H]3O[C@H](CO)[C@@H](O)[C@H](O)[C@H]3O)ccc2Cl)cc1
*A* -2.91

*Q* // query activity (max response) value for entry O=C1c2cccc(O)c2C(=O)c2c(O)cc(CO)cc21
*A* 13.5

*Q* // query activity (max response) value for entry CC(=O)Nc1c(I)c(NC(C)=O)c(I)c(C(=O)O)c1I
*A* 2.04

*Q* // query activity (max response) value for entry CCN(CC)CCOC(=O)C1(C2CCCCC2)CCCCC1
*A* -12.2

*Q* // query activity (max response) value for entry CCCCCCCN(CC)CCCC(O)c1ccc(NS(C)(=O)=O)cc1 (centres undefined)
*A* -11.3

*Q* // query activity (max response) value for entry O=C(Nc1cnn2ccc(N3CCC[C@@H]3c3cc(F)ccc3F)nc12)N1CC[C@H](O)C1
*A* -2.6

*Q* // query activity (max response) value for entry C/C=C1\[C@H]2C=C(C)C[C@]1(N)c1ccc(=O)[nH]c1C2
*A* 12.5

*Q* // query activity (max response) value for entry C[C@@H]1CCN(C(=O)CC#N)C[C@@H]1N(C)c1ncnc2[nH]ccc12
*A* -8.3

*Q* // query activity (max response) value for entry CNC(=O)Oc1ccc2c(c1)[C@]1(C)CCN(C)[C@@H]1N2C
*A* 16.2

*Q* // query activity (max response) value for entry CCc1c(C(=O)NNC(=O)[C@@H](O)c2cc(F)cc(F)c2)ccc(O)c1C
*A* -4.91

*Q* // query activity (max response) value for entry Cc1cccc(Nc2ccncc2S(=O)(=O)NC(=O)NC(C)C)c1
*A* -3.35

*Q* // query activity (max response) value for entry CC(C)(C)NC[C@H](O)COc1cccc2c1CCCC2=O
*A* -13.3

*Q* // query activity (max response) value for entry Cc1cc(O)c2c(c1)C(=O)c1cccc(O)c1C2=O
*A* -6.49

*Q* // query activity (max response) value for entry CCS(=O)(=O)c1ccc(OC)c(C(=O)OC)c1
*A* 10.8

*Q* // query activity (max response) value for entry N#Cc1c(O)c2c(-c3ccc(-c4ccccc4O)cc3)csc2[nH]c1=O
*A* 4.91

*Q* // query activity (max response) value for entry O=C(NCC1CCCCN1)c1cc(OCC(F)(F)F)ccc1OCC(F)(F)F (centres undefined)
*A* -4.23

*Q* // query activity (max response) value for entry Cc1ccc(NS(=O)(=O)c2ccc3c(c2)C2C=CCC2C(c2ccc(C(=O)O)cc2)N3)cc1C (centres undefined)
*A* -1.16

*Q* // query activity (max response) value for entry Cc1cc(NC(=O)C2=C(O)c3ccccc3S(=O)(=O)N2C)no1
*A* -0.835

*Q* // query activity (max response) value for entry O=C(O)c1ccc(O)c2ncc(N3CCOCC3)cc12
*A* -5.09

*Q* // query activity (max response) value for entry CCCCCCCC(=O)OCC(COC(=O)CCCCCCC)OC(=O)CCCCCCC
*A* 8.32

*Q* // query activity (max response) value for entry CN[C@@H](C)C(=O)N[C@H](C(=O)N1CCC[C@H]1C(=O)Nc1sc(-c2ncco2)nc1-c1ccccc1)C1CCCCC1
*A* -5.71

*Q* // query activity (max response) value for entry CCCCS(=O)(=O)N[C@@H](Cc1ccc(OCCCCC2CCNCC2)cc1)C(=O)O
*A* 11.9

*Q* // query activity (max response) value for entry CCCCC(=O)OCC(=O)[C@H]1[C@H](C)C[C@H]2[C@@H]3C[C@H](F)C4=CC(=O)C=C[C@]4(C)[C@@]3(F)[C@@H](O)C[C@@]21C
*A* 5.4

*Q* // query activity (max response) value for entry CC(C)c1cc(C(C)C)c(CC(=O)NS(=O)(=O)Oc2c(C(C)C)cccc2C(C)C)c(C(C)C)c1
*A* -25.2

*Q* // query activity (max response) value for entry Cc1cccc(C)c1NC(=O)c1ccccc1C(=O)O
*A* 8.06

*Q* // query activity (max response) value for entry Cc1cc(CC(=O)O)c(C)n1-c1ccc(Cl)cc1
*A* 4.84

*Q* // query activity (max response) value for entry O=c1n(CCCN2CCN(c3cccc(Cl)c3)CC2)nc2ccccn12
*A* -1.77

*Q* // query activity (max response) value for entry CC(N)CCCC(C)(C)O (centres undefined)
*A* 18.8

*Q* // query activity (max response) value for entry C=CC(=O)N1C[C@H](Nc2ncnc3[nH]ccc23)CC[C@@H]1C
*A* -23.7

*Q* // query activity (max response) value for entry CCNC1(C(N)=O)CCN(c2ncnc3c2nc(-c2ccccc2Cl)n3-c2ccc(Cl)cc2)CC1
*A* -4.01

*Q* // query activity (max response) value for entry COC(=O)/C=C/C(=O)N(O)CCCCNCc1ccc(COC(=O)Nc2cccc3ccccc23)cc1
*A* -10.5

*Q* // query activity (max response) value for entry COc1cc2ncnc(-n3nc(-c4ccccn4)nc3N)c2cc1OC
*A* 10.9
